runDescription: initial solubility of the active ingredient
Format: physicochemical
protocolConditions: active ingredient without liposomes, aqueous
endpointName: solubility
Reply with the number, then its unit.

Query: Recorded solubility for `O=C(O)c1nn(Cc2ccc(Cl)cc2Cl)c2ccccc12` , please?
Reply: 3 µg/mL

The reported numbers originate from patent US6337087B1.
